target: Sulfonylurea receptors; K-ATP channels (Homo sapiens, UniProt O60706+Q09428+Q14654+Q15842)
protocolSummary: Evaluated for K-ATP activity in terms of change in membrane potential through guinea pig bladder assay
Format: functional, Cavia porcellus
cond: target entry is the homologue from another species
measuredParameter: EC50 (nM)

molecule: Cc1ccc([C@H]2C3=C(CCCC3=O)NC3=C2S(=O)(=O)CC3)cc1I
unitString: nM
EC50: 21.9
--
molecule: O=C1CCCC2=C1[C@H](c1ccc(F)c(F)c1)C1=C(CCS1(=O)=O)N2
unitString: nM
EC50: 2040
--
molecule: CCC(C)(C)NC(=NC#N)Nc1cccnc1
unitString: nM
EC50: 44.7
--
molecule: COC(=O)C1=C(C)NC2=C(C1c1ccc(F)c(Br)c1)S(=O)(=O)CC2 (stereo not given)
unitString: nM
EC50: 53.7
--
molecule: O=C1CCCC2=C1[C@H](c1ccc(F)c(Br)c1)C1=C(CCS1(=O)=O)N2
unitString: nM
EC50: 123

I = C=Cc1cc([C@H]2C3=C(CCCC3=O)NC3=C2S(=O)(=O)CC3)ccc1F
II = O=C1CCCC2=C1[C@H](c1ccc(Br)c(Br)c1)C1=C(CCS1(=O)=O)N2
Ask: Compare EC50: is it lower for I or for II ? Please indicate the selected item by its label.
Reply: II

1 = O=C1CCCC2=C1[C@H](c1ccc(Cl)c(F)c1)C1=C(CCS1(=O)=O)N2
2 = O=C1CCC2=C1C(c1ccc(F)c(Br)c1)C1=C(CCCCS1(=O)=O)N2 (stereo not given)
3 = O=S1(=O)CCC2=C1C(c1ccc(F)c(Br)c1)C1=C(CCS1(=O)=O)N2
Ask: Sort the molecules on EC50; start with the lowest figure. Hello, could you send the labels back in the order asked? Thank you.
Reply: 3, 1, 2
(3: 339 nM, 1: 1320 nM, 2: 2240 nM)

* * *

target: Sulfonylurea receptors; K-ATP channels (Homo sapiens, UniProt O60706+Q09428+Q14654+Q15842)
protocolSummary: Evaluated for K-ATP activity as in vitro bladder relaxation in spontaneous Landrace pig detrusor strips (SLPD)
Type: functional, Sus scrofa
cond: target entry is the homologue from another species
pEC50: −log10 of the molar value.
measuredParameter: pEC50

Examples from the recorded data:
recordSmiles: CCc1cc(C#N)ccc1Nc1c(N[C@H](C)C(C)(C)C)c(=O)c1=O
target: Sulfonylurea receptors; K-ATP channels (Homo sapiens, UniProt O60706+Q09428+Q14654+Q15842)
pEC50: 6.99
--
recordSmiles: CCC(C)(C)NC(=NC#N)Nc1cccnc1
target: Sulfonylurea receptors; K-ATP channels (Homo sapiens, UniProt O60706+Q09428+Q14654+Q15842)
pEC50: 7.66

a = O=C1CCCC2=C1[C@H](c1ccc(F)c(Br)c1)C1=C(CCS1(=O)=O)N2
b = O=C1CCCC2=C1[C@@H](c1ccc(F)c(Br)c1)C1=C(CCS1(=O)=O)N2
Ask: Given the listed records, identify the one among a and b with higher pEC50. Please indicate the selected item by its label.
Reply: b
(b: 7.90, a: 7.64)

* * *

target: Sulfonylurea receptors; K-ATP channels (Homo sapiens, UniProt O60706+Q09428+Q14654+Q15842)
protocolSummary: Evaluated for K-ATP activity as stable twitch response through field-stimulated landrace pig detrusor assay (FSLPD)
Assay type: functional, Sus scrofa
cond: target entry is the homologue from another species
measuredParameter: EC50 (nM)
Give the value, in units of nM, as a plain number.

Ask: Please give the measured EC50 for this compound: O=C1CCCC2=C1[C@@H](c1ccc(F)c(Br)c1)C1=C(CCS1(=O)=O)N2
Reply: 69.2
